Ref: patent US20220056104A1

Item-by-item account of Rel EC50
Biological target: T1, DcR3 (UniProt O95407 30-300, limits assumed)
T1 construct: the construct is not described; also called decoy receptor DcR3; TNFRSF6B
T1 sequence (looked up): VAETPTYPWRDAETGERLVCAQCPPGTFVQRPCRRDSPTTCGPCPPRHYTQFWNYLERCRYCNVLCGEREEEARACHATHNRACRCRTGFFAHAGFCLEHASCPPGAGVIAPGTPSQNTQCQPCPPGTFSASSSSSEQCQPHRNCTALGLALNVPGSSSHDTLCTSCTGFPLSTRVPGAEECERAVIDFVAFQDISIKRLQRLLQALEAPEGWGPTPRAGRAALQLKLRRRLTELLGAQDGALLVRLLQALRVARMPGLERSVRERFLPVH
Experiment: ELISA, DcR3

TL1W103 (His-TEV-TL1A T185A) (ligand, also called TL1W103 (T185A)) HHHHHHENLYFQGLKGQEFAPSHQQVYAPLRADGDKPRAHLTVVRQTPTQHFKNQFPALHWEHELGLAFTKNRMNYTNKFLLIPESGDYFIYSQVTFRGMTSECSEIRQAGRPNKPDSITVVITKVADSYPEPTQLLMGTKSVCEVGSNWFQPIYLGAMFSLQEGDKLMVNVSDISLVDYTKEDKTFFGAFLL    2.5 ratio (head: nM)

Ask: Answer with the recorded Rel EC50 for the binder listed here: TL1W39 (His-TEV-TL1A L123G) (ligand, also called TL1W39 (L123G)) HHHHHHENLYFQGLKGQEFAPSHQQVYAPLRADGDKPRAHLTVVRQTPTQHFKNQFPALHWEHEGGLAFTKNRMNYTNKFLLIPESGDYFIYSQVTFRGMTSECSEIRQAGRPNKPDSITVVITKVTDSYPEPTQLLMGTKSVCEVGSNWFQPIYLGAMFSLQEGDKLMVNVSDISLVDYTKEDKTFFGAFLL
Result: 8.3 ratio (head: nM)

Ask: Output measured Rel EC50 for this item: TL1W123 (His-TEV-TL1A N207S) (ligand, also called TL1W123 (N207S)) HHHHHHENLYFQGLKGQEFAPSHQQVYAPLRADGDKPRAHLTVVRQTPTQHFKNQFPALHWEHELGLAFTKNRMNYTNKFLLIPESGDYFIYSQVTFRGMTSECSEIRQAGRPNKPDSITVVITKVTDSYPEPTQLLMGTKSVCEVGSSWFQPIYLGAMFSLQEGDKLMVNVSDISLVDYTKEDKTFFGAFLL
Result: 1.9 ratio (head: nM)

Ask: # return recorded Rel EC50 for input TL1W95 (His-TEV-TL1A Q167A) (ligand, also called TL1W95 (Q167A)) HHHHHHENLYFQGLKGQEFAPSHQQVYAPLRADGDKPRAHLTVVRQTPTQHFKNQFPALHWEHELGLAFTKNRMNYTNKFLLIPESGDYFIYSQVTFRGMTSECSEIRAAGRPNKPDSITVVITKVTDSYPEPTQLLMGTKSVCEVGSNWFQPIYLGAMFSLQEGDKLMVNVSDISLVDYTKEDKTFFGAFLL
Result: 7 ratio (head: nM)

Ask: Look up and report measured Rel EC50 for this entry: TL1W126 (His-TEV-TL1A F209W) (ligand, also called TL1W126 (F209W)) HHHHHHENLYFQGLKGQEFAPSHQQVYAPLRADGDKPRAHLTVVRQTPTQHFKNQFPALHWEHELGLAFTKNRMNYTNKFLLIPESGDYFIYSQVTFRGMTSECSEIRQAGRPNKPDSITVVITKVTDSYPEPTQLLMGTKSVCEVGSNWWQPIYLGAMFSLQEGDKLMVNVSDISLVDYTKEDKTFFGAFLL
Result: 3 ratio (head: nM)

Ask: Identify measured Rel EC50 associated with TL1W118 (His-TEV-TL1A S206A) (ligand, also called TL1W118 (S206A)) HHHHHHENLYFQGLKGQEFAPSHQQVYAPLRADGDKPRAHLTVVRQTPTQHFKNQFPALHWEHELGLAFTKNRMNYTNKFLLIPESGDYFIYSQVTFRGMTSECSEIRQAGRPNKPDSITVVITKVTDSYPEPTQLLMGTKSVCEVGANWFQPIYLGAMFSLQEGDKLMVNVSDISLVDYTKEDKTFFGAFLL
Result: 1.9 ratio (head: nM)

Ask: Fill in Rel EC50 for record TL1W28 (His-TEV-hTL1A 72-251 E190G) (ligand, also called TL1W28 (E190G)) HHHHHHENLYFQGLKGQEFAPSHQQVYAPLRADGDKPRAHLTVVRQTPTQHFKNQFPALHWEHELGLAFTKNRMNYTNKFLLIPESGDYFIYSQVTFRGMTSECSEIRQAGRPNKPDSITVVITKVTDSYPGPTQLLMGTKSVCEVGSNWFQPIYLGAMFSLQEGDKLMVNVSDISLVDYTKEDKTFFGAFLL
Result: 1.2 ratio (head: nM)

Ask: State its Rel EC50: TL1W136 (His-TEV-TL1A K240F) (ligand, also called TL1W136 (K240F)) HHHHHHENLYFQGLKGQEFAPSHQQVYAPLRADGDKPRAHLTVVRQTPTQHFKNQFPALHWEHELGLAFTKNRMNYTNKFLLIPESGDYFIYSQVTFRGMTSECSEIRQAGRPNKPDSITVVITKVTDSYPEPTQLLMGTKSVCEVGSNWFQPIYLGAMFSLQEGDKLMVNVSDISLVDYTFEDKTFFGAFLL
Result: 38.7 ratio (head: nM)

Ask: Return Rel EC50 (reported value) for this binder: TL1W109 (His-TEV-TL1A S187L) (ligand, also called TL1W109 (S187L)) HHHHHHENLYFQGLKGQEFAPSHQQVYAPLRADGDKPRAHLTVVRQTPTQHFKNQFPALHWEHELGLAFTKNRMNYTNKFLLIPESGDYFIYSQVTFRGMTSECSEIRQAGRPNKPDSITVVITKVTDLYPEPTQLLMGTKSVCEVGSNWFQPIYLGAMFSLQEGDKLMVNVSDISLVDYTKEDKTFFGAFLL
Result: 3.4 ratio (head: nM)

Ask: Please list Rel EC50 recorded for the binder TL1W110 (His-TEV-TL1A S187K) (ligand, also called TL1W110 (S187K)) HHHHHHENLYFQGLKGQEFAPSHQQVYAPLRADGDKPRAHLTVVRQTPTQHFKNQFPALHWEHELGLAFTKNRMNYTNKFLLIPESGDYFIYSQVTFRGMTSECSEIRQAGRPNKPDSITVVITKVTDKYPEPTQLLMGTKSVCEVGSNWFQPIYLGAMFSLQEGDKLMVNVSDISLVDYTKEDKTFFGAFLL
Result: 3.4 ratio (head: nM)

Ask: Indicate its recorded Rel EC50; the binder in question is TL1W92 (His-TEV-TL1A M158Y) (ligand, also called TL1W92 (M158Y)) HHHHHHENLYFQGLKGQEFAPSHQQVYAPLRADGDKPRAHLTVVRQTPTQHFKNQFPALHWEHELGLAFTKNRMNYTNKFLLIPESGDYFIYSQVTFRGYTSECSEIRQAGRPNKPDSITVVITKVTDSYPEPTQLLMGTKSVCEVGSNWFQPIYLGAMFSLQEGDKLMVNVSDISLVDYTKEDKTFFGAFLL
Result: 2.7 ratio (head: nM)
